Target: Plasma kallikrein (Homo sapiens)
Sequence (P03952 20-390 limits assumed): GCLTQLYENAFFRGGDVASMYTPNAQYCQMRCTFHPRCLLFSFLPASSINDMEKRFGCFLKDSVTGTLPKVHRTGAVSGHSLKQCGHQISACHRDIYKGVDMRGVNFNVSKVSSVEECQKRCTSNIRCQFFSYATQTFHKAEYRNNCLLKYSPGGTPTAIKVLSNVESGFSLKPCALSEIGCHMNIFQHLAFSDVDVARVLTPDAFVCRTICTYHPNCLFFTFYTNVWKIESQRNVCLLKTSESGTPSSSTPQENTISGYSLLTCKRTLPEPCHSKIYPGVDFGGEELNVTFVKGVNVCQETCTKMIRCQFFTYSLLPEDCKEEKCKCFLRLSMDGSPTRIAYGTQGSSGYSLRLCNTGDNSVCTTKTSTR
Sequence (P03952 391-638 limits assumed): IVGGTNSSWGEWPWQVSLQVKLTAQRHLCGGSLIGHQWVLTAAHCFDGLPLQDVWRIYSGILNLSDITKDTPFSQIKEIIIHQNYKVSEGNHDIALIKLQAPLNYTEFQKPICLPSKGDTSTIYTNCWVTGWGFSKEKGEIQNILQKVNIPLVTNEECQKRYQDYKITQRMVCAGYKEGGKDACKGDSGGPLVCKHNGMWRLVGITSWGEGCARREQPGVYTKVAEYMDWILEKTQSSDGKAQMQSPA
Assay: Inhibition of plasma kallikrein
Property measured: IC50 (µM)
Field format: number, assumed µM, no unit text.

Query IC50 on Plasma kallikrein (Homo sapiens) for CC(C)(C)OC(=O)n1cc(CCC(=O)Nc2cc(C(=O)N[C@H](C#N)CCCCN)ccc2OCc2ccncc2)c2ccccc21
910

Query IC50 on Plasma kallikrein (Homo sapiens) for N#C[C@H](CCCCN)NC(=O)c1ccc(OCc2ccncc2)c(NC(=O)Cc2ccc3ccccc3c2)c1
380

Query IC50 on Plasma kallikrein (Homo sapiens) for N#C[C@H](CCCCN)NC(=O)c1ccc(OCc2ccncc2)c(NC(=O)Cc2cccc3ccccc23)c1
680
